- MEASUREMENT_TARGET: Serine/threonine-protein kinase B-raf (Homo sapiens, UniProt P15056, V600E)
- ASSAY_SUMMARY: Inhibition of recombinant human N-terminal GST-tagged BRAF V600E mutant catalytic domain (416 to 766 residues) expressed in baculovirus expression system using human His6-tagged MEK1 (K97R) as substrate preincubated for 20 mins followed by [33P-gamma]ATP addition and measured after 2 hrs by filter-binding assay
pIC50: −log10 of the molar value.
Label scheme for pIC50: lower than 6 is N, 6 and above is Y.

Field: example entries. Status: answers known.
[[record]]
compound_smiles = "CNC(=O)c1cc(Oc2ccc(NC(=O)c3ccccc3)cc2)ccc1N"
measurement_target = "Serine/threonine-protein kinase B-raf (Homo sapiens, UniProt P15056, V600E)"
group_label = "Y"

[[record]]
compound_smiles = "CNC(=O)c1cc(Oc2ccc(NC(=O)c3cccc(N)c3)cc2)ccc1N"
measurement_target = "Serine/threonine-protein kinase B-raf (Homo sapiens, UniProt P15056, V600E)"
group_label = "N"

[[record]]
compound_smiles = "CNC(=O)c1cc(Oc2ccc(NC(=O)c3cccnc3)cc2)ccc1N"
measurement_target = "Serine/threonine-protein kinase B-raf (Homo sapiens, UniProt P15056, V600E)"
group_label = "N"


stdin: Threshold query (pIC50 >= 6) on CNC(=O)c1cc(Oc2ccc(NC(=O)c3cccc(O)c3)cc2)ccc1N
stdout: N

stdin: Does pIC50 meet or surpass 6 for CNC(=O)c1cc(Oc2ccc(NC(=O)c3ccc(Cl)c(C(F)(F)F)c3)cc2)ccc1N ?
stdout: Y

stdin: Decide: pIC50 of CNC(=O)c1cc(Oc2ccc(NC(=O)c3ccc(Cl)cc3)cc2)ccc1N >= 6?
stdout: Y

stdin: Given the entry CNC(=O)c1cc(Oc2ccc(NC(=O)c3ccc4ccccc4c3)cc2)ccc1N , answer whether its pIC50 meets or surpasses 6.
stdout: Y
